This listing pairs compounds with measured pEC50.
Tgt: AR / CBP ternary complex (Homo sapiens, UniProt P10275+Q92793)
Sequence (P10275 whole entry): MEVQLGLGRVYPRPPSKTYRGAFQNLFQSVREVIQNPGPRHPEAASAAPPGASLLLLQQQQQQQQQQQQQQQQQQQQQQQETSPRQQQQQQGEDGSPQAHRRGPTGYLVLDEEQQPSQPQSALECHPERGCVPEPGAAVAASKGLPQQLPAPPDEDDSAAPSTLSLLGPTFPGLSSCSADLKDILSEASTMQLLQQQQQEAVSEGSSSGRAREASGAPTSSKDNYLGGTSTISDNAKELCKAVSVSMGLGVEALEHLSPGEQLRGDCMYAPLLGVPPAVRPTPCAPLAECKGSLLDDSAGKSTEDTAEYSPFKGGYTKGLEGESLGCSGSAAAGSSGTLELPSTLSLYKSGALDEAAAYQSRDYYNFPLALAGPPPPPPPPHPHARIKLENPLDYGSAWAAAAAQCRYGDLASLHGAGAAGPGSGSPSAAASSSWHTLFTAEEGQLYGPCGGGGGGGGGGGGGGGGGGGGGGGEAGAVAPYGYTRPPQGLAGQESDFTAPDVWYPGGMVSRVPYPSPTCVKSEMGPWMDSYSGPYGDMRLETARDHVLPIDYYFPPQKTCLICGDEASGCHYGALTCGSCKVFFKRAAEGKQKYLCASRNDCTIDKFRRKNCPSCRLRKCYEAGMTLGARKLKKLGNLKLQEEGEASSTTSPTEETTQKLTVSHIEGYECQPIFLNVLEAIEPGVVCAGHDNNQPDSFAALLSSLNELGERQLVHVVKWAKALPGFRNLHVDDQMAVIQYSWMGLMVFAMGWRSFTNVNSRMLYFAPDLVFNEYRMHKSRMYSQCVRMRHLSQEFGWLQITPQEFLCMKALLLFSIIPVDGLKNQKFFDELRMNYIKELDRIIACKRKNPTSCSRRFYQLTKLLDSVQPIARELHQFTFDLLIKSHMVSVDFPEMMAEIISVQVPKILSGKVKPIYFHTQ
Sequence (Q92793 2-2442): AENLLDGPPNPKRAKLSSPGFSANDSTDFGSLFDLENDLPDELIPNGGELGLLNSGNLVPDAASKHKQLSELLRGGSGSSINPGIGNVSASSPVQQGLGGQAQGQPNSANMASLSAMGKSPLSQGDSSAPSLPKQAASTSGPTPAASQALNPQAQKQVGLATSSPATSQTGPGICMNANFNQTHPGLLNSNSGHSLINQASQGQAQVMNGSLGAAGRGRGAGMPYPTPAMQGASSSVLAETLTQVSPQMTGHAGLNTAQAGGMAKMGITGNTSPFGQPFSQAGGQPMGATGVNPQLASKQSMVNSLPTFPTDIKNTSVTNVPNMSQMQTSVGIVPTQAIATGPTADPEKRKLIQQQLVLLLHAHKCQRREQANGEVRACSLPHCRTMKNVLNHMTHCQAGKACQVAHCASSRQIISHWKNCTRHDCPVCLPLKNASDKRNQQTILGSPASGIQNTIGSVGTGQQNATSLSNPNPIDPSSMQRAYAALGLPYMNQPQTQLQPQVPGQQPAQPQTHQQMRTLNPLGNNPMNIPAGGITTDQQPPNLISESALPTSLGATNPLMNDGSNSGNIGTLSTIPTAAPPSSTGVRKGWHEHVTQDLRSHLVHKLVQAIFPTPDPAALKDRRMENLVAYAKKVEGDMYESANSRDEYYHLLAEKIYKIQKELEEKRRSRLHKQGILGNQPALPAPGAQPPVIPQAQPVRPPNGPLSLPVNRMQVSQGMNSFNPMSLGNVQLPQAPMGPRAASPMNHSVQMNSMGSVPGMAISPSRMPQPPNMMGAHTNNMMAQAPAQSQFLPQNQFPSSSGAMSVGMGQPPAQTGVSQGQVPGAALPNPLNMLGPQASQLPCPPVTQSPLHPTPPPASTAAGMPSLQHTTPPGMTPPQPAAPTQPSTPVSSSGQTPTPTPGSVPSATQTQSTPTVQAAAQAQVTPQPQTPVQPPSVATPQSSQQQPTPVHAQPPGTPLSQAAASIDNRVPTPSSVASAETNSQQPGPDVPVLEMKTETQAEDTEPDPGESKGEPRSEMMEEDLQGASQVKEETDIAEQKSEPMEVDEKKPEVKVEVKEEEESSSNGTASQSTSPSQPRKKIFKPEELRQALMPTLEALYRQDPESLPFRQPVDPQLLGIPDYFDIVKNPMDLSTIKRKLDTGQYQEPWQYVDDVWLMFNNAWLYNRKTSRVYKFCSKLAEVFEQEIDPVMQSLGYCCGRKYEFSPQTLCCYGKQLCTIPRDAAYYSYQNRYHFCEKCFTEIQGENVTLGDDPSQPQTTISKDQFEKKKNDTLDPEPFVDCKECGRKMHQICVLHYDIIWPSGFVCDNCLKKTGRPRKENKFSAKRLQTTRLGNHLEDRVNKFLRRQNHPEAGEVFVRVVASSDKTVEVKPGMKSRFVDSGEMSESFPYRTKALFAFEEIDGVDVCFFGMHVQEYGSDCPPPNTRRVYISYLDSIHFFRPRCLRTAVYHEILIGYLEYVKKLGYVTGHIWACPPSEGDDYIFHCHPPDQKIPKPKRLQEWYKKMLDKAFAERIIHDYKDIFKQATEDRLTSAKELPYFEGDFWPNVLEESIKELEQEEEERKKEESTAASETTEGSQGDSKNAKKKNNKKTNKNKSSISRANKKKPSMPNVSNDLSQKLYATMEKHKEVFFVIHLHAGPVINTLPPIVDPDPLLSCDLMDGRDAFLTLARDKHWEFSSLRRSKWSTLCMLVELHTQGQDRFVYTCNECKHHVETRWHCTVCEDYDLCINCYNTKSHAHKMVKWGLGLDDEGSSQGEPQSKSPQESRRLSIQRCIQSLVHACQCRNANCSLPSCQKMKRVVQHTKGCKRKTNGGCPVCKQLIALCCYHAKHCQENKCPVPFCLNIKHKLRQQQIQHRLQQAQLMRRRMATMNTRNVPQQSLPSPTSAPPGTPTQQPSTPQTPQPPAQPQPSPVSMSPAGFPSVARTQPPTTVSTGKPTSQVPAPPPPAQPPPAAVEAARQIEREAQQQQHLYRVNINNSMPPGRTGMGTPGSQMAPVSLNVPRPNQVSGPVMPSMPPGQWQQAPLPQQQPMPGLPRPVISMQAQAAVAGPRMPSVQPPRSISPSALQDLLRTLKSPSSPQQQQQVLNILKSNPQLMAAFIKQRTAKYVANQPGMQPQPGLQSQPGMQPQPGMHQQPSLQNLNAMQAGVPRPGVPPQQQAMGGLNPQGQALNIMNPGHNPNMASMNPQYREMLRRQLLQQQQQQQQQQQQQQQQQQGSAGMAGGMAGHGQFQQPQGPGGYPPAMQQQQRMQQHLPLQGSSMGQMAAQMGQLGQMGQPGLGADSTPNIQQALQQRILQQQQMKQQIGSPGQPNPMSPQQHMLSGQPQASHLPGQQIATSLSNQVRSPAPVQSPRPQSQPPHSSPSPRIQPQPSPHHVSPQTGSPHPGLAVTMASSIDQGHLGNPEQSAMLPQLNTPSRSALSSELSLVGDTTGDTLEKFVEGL
Protocol: Ternary complex formation assay (sandwich ELISA, AR capture, CBP antibody detection) in VCaP cell lysates
Assay type: cell-based
Condition label: treated 1.5 hours, rabbit CBP or p300 antibody detection, average, read-out: Average Ternary Complex
pEC50: −log10 of the molar value.

- CC(=O)N1CCc2c(c(-c3cccc4cc(-c5cnn(C6CCN(C7CCN(c8ccc(C(=O)N[C@H]9CC[C@H](Oc%10ccc(C#N)c(Cl)c%10)CC9)nn8)CC7)CC6)c5)ncc34)nn2C2CCOCC2)C1: > 9.00
- CC(=O)N1CCc2c(c(-c3cccc4cc(-c5ccc(CC6CCN(c7ccc(C(=O)N[C@H]8CC[C@H](Oc9ccc(C#N)c(Cl)c9)CC8)nn7)CC6)nc5)ncc34)nn2C2CCOCC2)C1: > 9.00

Now turn to the next compound.
Query: What does the data say about its pEC50? Entry: CC(=O)N1CCc2c(c(N3CCCc4cc(-c5cnn(C)c5)c(C(F)F)cc43)nn2C2CCN(CC3C(C)CN(c4ccc(C(=O)N[C@H]5CC[C@H](Oc6ccc(C#N)c(Cl)c6)CC5)nn4)CC3C)CC2)C1 (stereo partly drawn)
Reply: > 9.00
